Attribution: paper PMC7896091

System: BALB/3T3 cells
method: Toxicity towards normal fibroblasts, SRB assay
Type: cell-based
measurement-parameters: normal mouse fibroblasts, 72 h exposure, mean ± SD, n.a = no activity in concentration of 5, 25, 125, 625 μM
observation-type: IC50 (µM)
Numbers only here, please. The scale is µM.

Data request, read-out IC50, for N.N.[Cl][Pt][Cl] [Cisplatin, reference compound] 4.44

----------
System: Myzus persicae
method: Aphid settling (choice test) on treated vs control leaves of Brassica rapa subsp. pekinensis
Assay type: in vivo
measurement-parameters: 24 h after access; 0.1% solution in 70% ethanol; mean (± SD), n = 8, 20 aphids/replicate
observation-type: Mean number of aphids settled on treated (test) leaf

Data request, read-out Mean number of aphids settled on treated (test) leaf, for CC(C)CCCC(C)CCCC(C)CCC[C@]1(C)CC(=O)O[C@@H]1CBr (stereo in doubt) 4.9 (± 1.7)

Data request, read-out Mean number of aphids settled on treated (test) leaf, for CC(C)CCCC(C)CCCC(C)CCC[C@]1(C)CC(=O)O[C@H]1CCl (stereo in doubt) 4.8 (± 0.9)

Data request, read-out Mean number of aphids settled on treated (test) leaf, for C=CC(C)(CCCC(C)CCCC(C)CCCC(C)C)CC(=O)OCC (stereo not drawn) 9.6 (± 1.6)

Data request, read-out Mean number of aphids settled on treated (test) leaf, for CC(C)CCCC(C)CCCC(C)CCC[C@]1(C)CC(=O)O[C@@H]1CCl (stereo in doubt) 10.0 (± 1.7)

Data request, read-out Mean number of aphids settled on treated (test) leaf, for C=CC(C)(CCCC(C)CCCC(C)CCCC(C)C)CC(=O)O (stereo not drawn) 8.1 (± 1.3)

Data request, read-out Mean number of aphids settled on treated (test) leaf, for CC(C)CCCC(C)CCCC(C)CCC[C@]1(C)CC(=O)O[C@H]1CBr (stereo in doubt) 5.6 (± 1.4)
